# Tested on: johnsongrass (Sorghum halepense)
# assay_explanation: Test B pre-/postemergence plant response
# Format: in vivo
# condition_parameters: Postemergence, 62 g ai/ha; scale 0 to 100 (0 no effect, 100 complete control)
Assign Plant response rating, Johnsongrass to each entry below.
Write the value as a bare number.

Reported Plant response rating, Johnsongrass ( CCn1c(-c2ccccc2)ncc(C(=O)C2=C(O)C3CCC(C3)C2=O)c1=O (centres unmarked) ) = 20

Short answer for COCCn1c(-c2ccsc2)ncc(C(=O)C2=C(O)C3CCC(C3)C2=O)c1=O (centres unmarked) : Plant response rating, Johnsongrass was 75

// sample CCCn1c(-c2ccsc2)ncc(C(=O)C2=C(O)C3CCC(C3)C2=O)c1=O (centres unmarked) , its Plant response rating, Johnsongrass was 60

In plain terms, CCCCn1c(-c2cccc(F)c2)ncc(C(=O)C2=C(O)C3CCC(C3)C2=O)c1=O (centres unmarked) has a documented Plant response rating, Johnsongrass of 100

Measured Plant response rating, Johnsongrass of O=C(C1=C(O)C2CCC(C2)C1=O)c1cnc(-c2ccsc2)n(CC2CCCO2)c1=O (centres unmarked) : 100

Value source: patent US8952024B2
